These measurements were taken from paper PMC10958470.

molecular target: RdRp complex (Severe acute respiratory syndrome coronavirus 2, UniProt P0DTD1); assay type: binding, SARS-CoV-2
Below, each entry is listed alongside its reported RdRp Tm °C 100 µM.
Include the unit right after the number.

Query: Return reported RdRp Tm °C 100 µM; argument: O=c1c(O)c(-c2ccc(O)c(O)c2)oc2cc(O)ccc12
Reply: 43.5 °C

Query: Return reported RdRp Tm °C 100 µM; argument: O=C(N/N=C/c1ccc(O)c(O)c1)c1cc2ccccc2cc1O
Reply: 44.5 °C

Query: Return reported RdRp Tm °C 100 µM; argument: Cc1ccc(C(=O)Nc2ccc(S(=O)(=O)O)c3cc(S(=O)(=O)O)cc(S(=O)(=O)O)c23)cc1NC(=O)c1cccc(NC(=O)Nc2cccc(C(=O)Nc3cc(C(=O)Nc4ccc(S(=O)(=O)O)c5cc(S(=O)(=O)O)cc(S(=O)(=O)O)c45)ccc3C)c2)c1 [suramin hexasodium]
Reply: 46.6 °C

Query: Return reported RdRp Tm °C 100 µM; argument: CC1=NN(c2ccc(C)c(C)c2)C(=O)/C1=N\Nc1cccc(-c2cccc(C(=O)O)c2)c1O
Reply: 43.6 °C

Query: Return reported RdRp Tm °C 100 µM; argument: O=c1c(O)c(-c2cc(O)c(O)c(O)c2)oc2cc(O)cc(O)c12
Reply: 43.6 °C

---

molecular target: RdRp complex (Severe acute respiratory syndrome coronavirus 2); assay type: binding, SARS-CoV-2
endpoint: RdRp Tm °C 20 µM (°C)
Enter your answer as a number in °C; do not include the unit.

CC1=NN(c2ccc(C)c(C)c2)C(=O)/C1=N\Nc1cccc(-c2cccc(C(=O)O)c2)c1O
41.5

Query: Return reported RdRp Tm °C 20 µM; argument: O=c1c(O)c(-c2ccc(O)c(O)c2)oc2cc(O)ccc12
Reply: 42.7

Query: Return reported RdRp Tm °C 20 µM; argument: O=c1c(O)c(-c2cc(O)c(O)c(O)c2)oc2cc(O)cc(O)c12
Reply: 42.7

Query: Return reported RdRp Tm °C 20 µM; argument: O=C(N/N=C/c1ccc(O)c(O)c1)c1cc2ccccc2cc1O
Reply: 43.3

Query: Return reported RdRp Tm °C 20 µM; argument: Cc1ccc(C(=O)Nc2ccc(S(=O)(=O)O)c3cc(S(=O)(=O)O)cc(S(=O)(=O)O)c23)cc1NC(=O)c1cccc(NC(=O)Nc2cccc(C(=O)Nc3cc(C(=O)Nc4ccc(S(=O)(=O)O)c5cc(S(=O)(=O)O)cc(S(=O)(=O)O)c45)ccc3C)c2)c1 [suramin hexasodium]
Reply: 44.3

---

Below, each entry is listed alongside its reported DTT nsp13 inhibition [%] 20 µM (DTT HC Helicase inhibition [%]).
target: SARS-CoV-2 helicase (nsp13) (Severe acute respiratory syndrome coronavirus 2); assay: biochemical; type: biochemical
Enter your answer as a number in %; do not include the unit.

# annotated cases, reported DTT nsp13 inhibition [%] 20 µM (DTT HC Helicase inhibition [%]) shown
CO[C@H](C(=O)[C@@H](O)[C@@H](C)O)[C@@H]1Cc2cc3cc(O[C@H]4C[C@@H](O[C@H]5C[C@@H](O)[C@H](O)[C@@H](C)O5)[C@H](O)[C@@H](C)O4)c(C)c(O)c3c(O)c2C(=O)[C@H]1O[C@H]1C[C@@H](O[C@H]2C[C@@H](O[C@H]3C[C@](C)(O)[C@H](O)[C@@H](C)O3)[C@@H](O)[C@@H](C)O2)[C@H](O)[C@@H](C)O1 [plicamycin (mithramycin), plicamycin]
98.09
O=c1c(O)c(-c2cc(O)c(O)c(O)c2)oc2cc(O)cc(O)c12 [myricetin (cannabiscetin), myricetin]
67.25

Query: Return reported DTT nsp13 inhibition [%] 20 µM (DTT HC Helicase inhibition [%]); argument: OC[C@H]1O[C@H]([S-])[C@H](O)[C@@H](O)[C@@H]1O.[Au+] [aurothioglucose]
Reply: 98.65

Query: Return reported DTT nsp13 inhibition [%] 20 µM (DTT HC Helicase inhibition [%]); argument: O=C(Nc1ccc2c(O)cc(S(=O)(=O)[O-])cc2c1)Nc1ccc2c(O)cc(S(=O)(=O)[O-])cc2c1.[Na+].[Na+]
Reply: 65.72

Query: Return reported DTT nsp13 inhibition [%] 20 µM (DTT HC Helicase inhibition [%]); argument: Cc1c(Cl)c(C)[n+]([O-])c(Cl)c1-c1noc(-c2cc(O)c(O)c([N+](=O)[O-])c2)n1 [opicapone]
Reply: 51.40
